# TESTED_ON: FGFR1 (UniProt P11362)
# Sequence (P11362 whole entry, looked up): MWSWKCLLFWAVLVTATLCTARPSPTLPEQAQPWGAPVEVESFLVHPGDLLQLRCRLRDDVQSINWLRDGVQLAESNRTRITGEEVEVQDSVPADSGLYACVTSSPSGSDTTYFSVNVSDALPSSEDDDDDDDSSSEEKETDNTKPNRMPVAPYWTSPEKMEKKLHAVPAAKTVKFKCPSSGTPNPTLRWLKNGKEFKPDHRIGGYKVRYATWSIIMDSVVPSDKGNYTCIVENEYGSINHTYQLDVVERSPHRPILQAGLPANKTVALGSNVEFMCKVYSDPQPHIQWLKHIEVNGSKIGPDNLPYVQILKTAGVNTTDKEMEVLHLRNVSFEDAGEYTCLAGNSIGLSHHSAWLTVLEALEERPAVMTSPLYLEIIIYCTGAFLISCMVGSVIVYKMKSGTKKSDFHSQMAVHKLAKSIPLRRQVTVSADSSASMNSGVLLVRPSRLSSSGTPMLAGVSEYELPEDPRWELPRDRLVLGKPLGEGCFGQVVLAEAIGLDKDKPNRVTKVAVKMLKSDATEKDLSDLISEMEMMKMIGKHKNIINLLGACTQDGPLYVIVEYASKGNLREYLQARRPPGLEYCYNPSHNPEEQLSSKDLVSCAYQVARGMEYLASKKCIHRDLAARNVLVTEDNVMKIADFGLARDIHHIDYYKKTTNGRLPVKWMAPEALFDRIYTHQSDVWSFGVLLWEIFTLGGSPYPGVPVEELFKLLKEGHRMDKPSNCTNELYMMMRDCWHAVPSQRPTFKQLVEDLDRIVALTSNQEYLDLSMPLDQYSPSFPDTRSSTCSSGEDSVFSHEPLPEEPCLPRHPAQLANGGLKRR
# PROTOCOL_TEXT: phosphorylation enrichment, bacterial display (enrichment ratio); higher = better substrate or ligand; peptides without Tyr show the background;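 also: 11-residue human phosphosite peptides and single-mutation variants displayed on the E. coli surface, counted by deep sequencing, each peptide's frequency after selection divided by its frequency in the unselected input library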;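 also: frequency after pTyr selection over input frequency; kinase dosed for 20-30% of maximal phosphorylation in three min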
phosphorylation enrichment listing for selected sequences.
Number, no unit, nothing else.

>  <SEQUENCE_CHAIN>
PAIERYVVVCK [RHO_Y136_L131P]

>  <METRIC_NAME>
phosphorylation enrichment

>  <TEST_RESULT>
0.505

$$$$
>  <SEQUENCE_CHAIN>
LGPDGYSTVDR [ARVCF_Y901]

>  <METRIC_NAME>
phosphorylation enrichment

>  <TEST_RESULT>
0.617

$$$$
>  <SEQUENCE_CHAIN>
EDKFMYSEFPQ [PTEN_Y240_F241S]

>  <METRIC_NAME>
phosphorylation enrichment

>  <TEST_RESULT>
1.49

$$$$

Provide phosphorylation enrichment, system FGFR1 (UniProt P11362), entry EATKGHLDDPT [G6PD_Y322_Y322H]
0.467

Provide phosphorylation enrichment, system FGFR1 (UniProt P11362), entry EATKVYLDDPT [G6PD_Y322_G321V]
0.428

Provide phosphorylation enrichment, system FGFR1 (UniProt P11362), entry FSTDFYRVGGH [NTRK2_Y707_YF]
0.459

Provide phosphorylation enrichment, system FGFR1 (UniProt P11362), entry APSEFYDGDHD [HDAC3_Y414_N411S]
0.78

Provide phosphorylation enrichment, system FGFR1 (UniProt P11362), entry LITTLYIDFLG [KCNQ1_Y267_G269D]
1.09
